- assay: Antioxidant activity assessed as DPPH radical scavenging activity after 30 mins by spectrophotometry analysis
- Assay type: physicochemical
measured_endpoint: pEC50
# log scale: pEC50 equals minus log10 of the concentration in mol/L

Reported pEC50 for O=C(OCCC12CC3CC(CC(C3)C1)C2)c1cc(N(O)C2CCCO2)on1 (centres undefined) : what is it? 4.68

Reported pEC50 for `C[C@H](c1cc2ccccc2s1)N(O)C(N)=O` : what is it? 4.85

Reported pEC50 for O=C(OCC12CC3CC(CC(C3)C1)C2)c1cc(N(O)C2CCCO2)on1 (centres undefined) : what is it? 4.15

Reported pEC50 for CC12CC3CC(C)(C1)CC(OC(=O)c1cc(N(O)C4CCCO4)on1)(C3)C2 (centres undefined) : what is it? 4.42

Reported pEC50 for O=C(OC1C2CC3CC(C2)CC1C3)c1cc(N(O)C2CCCO2)on1 (centres undefined) : what is it? 4.15

Reported pEC50 for O=C(OC12CC3CC(CC(C3)C1)C2)c1cc(N(O)C2CCCO2)on1 (centres undefined) : what is it? 4.80

---

- tested_system: Seed linoleate 13S-lipoxygenase-1 (Glycine max, UniProt P08170)
- Sequence (P08170 whole entry): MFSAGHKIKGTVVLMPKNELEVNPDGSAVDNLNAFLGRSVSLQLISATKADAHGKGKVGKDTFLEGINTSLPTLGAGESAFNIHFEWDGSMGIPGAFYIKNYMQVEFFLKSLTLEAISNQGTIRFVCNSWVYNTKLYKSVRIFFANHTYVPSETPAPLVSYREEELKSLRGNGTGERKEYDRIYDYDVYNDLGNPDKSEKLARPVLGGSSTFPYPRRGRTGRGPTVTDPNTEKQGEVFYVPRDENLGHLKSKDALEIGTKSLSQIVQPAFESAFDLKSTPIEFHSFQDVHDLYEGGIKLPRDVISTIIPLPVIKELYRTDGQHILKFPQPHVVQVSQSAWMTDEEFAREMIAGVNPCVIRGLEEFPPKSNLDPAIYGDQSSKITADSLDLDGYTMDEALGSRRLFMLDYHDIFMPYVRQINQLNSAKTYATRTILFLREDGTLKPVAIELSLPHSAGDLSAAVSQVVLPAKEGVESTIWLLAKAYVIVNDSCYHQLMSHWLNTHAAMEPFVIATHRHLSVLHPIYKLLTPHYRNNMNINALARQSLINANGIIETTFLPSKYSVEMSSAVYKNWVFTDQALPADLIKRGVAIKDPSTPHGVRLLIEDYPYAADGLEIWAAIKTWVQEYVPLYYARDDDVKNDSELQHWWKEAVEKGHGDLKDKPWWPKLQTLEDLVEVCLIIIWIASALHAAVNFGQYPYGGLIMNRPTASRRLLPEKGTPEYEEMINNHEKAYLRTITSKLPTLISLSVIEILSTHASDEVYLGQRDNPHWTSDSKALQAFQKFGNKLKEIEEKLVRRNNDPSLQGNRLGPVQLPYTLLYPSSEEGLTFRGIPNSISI
- assay: Inhibition of soybean LOX1 assessed as reduction in linoleic acid oxidation measured every 10 s for 10 mins by spectrophotometry analysis
- experimental_context: read-out: IC50
pIC50: −log10 of the molar value.
If the reported pIC50 equals or exceeds 5, assign 1 (yes). If not, assign 0 (no).

Determine whether this compound has pIC50 no lower than 5: O=C(OCCC12CC3CC(CC(C3)C1)C2)c1cc(N(O)C2CCCO2)on1 (stereo unspecified) 1 (yes)

Determine whether this compound has pIC50 no lower than 5: CC(C)OC(=O)C12CC3CC(CC(OC(=O)c4cc(N(O)C5CCCO5)on4)(C3)C1)C2 (stereo unspecified) 0 (no)

Determine whether this compound has pIC50 no lower than 5: O=C(OC1C2CC3CC(C2)CC1C3)c1cc(N(O)C2CCCO2)on1 (stereo unspecified) 1 (yes)

Determine whether this compound has pIC50 no lower than 5: O=C(OCC12CC3CC(CC(C3)C1)C2)c1cc(N(O)C2CCCO2)on1 (stereo unspecified) 0 (no)

Determine whether this compound has pIC50 no lower than 5: CC12CC3CC(C)(C1)CC(OC(=O)c1cc(N(O)C4CCCO4)on1)(C3)C2 (stereo unspecified) 1 (yes)

Determine whether this compound has pIC50 no lower than 5: O=C(OC12CC3CC(CC(C3)C1)C2)c1cc(N(O)C2CCCO2)on1 (stereo unspecified) 0 (no)

---

- Tested on: Brain
- assay: Antioxidant activity in Wstar rat brain homogenate assessed as inhibition of Fe(II)-induced TBARS formation incubated for 15 mins by spectrophotometry analysis
- Type: functional, tissue-based
- experimental_context: 0.25 h
measured_endpoint: IC50

Reported IC50 for `C[C@H](c1cc2ccccc2s1)N(O)C(N)=O` : what is it? > 50 µM

---

- assay: Antioxidant activity assessed as DPPH radical scavenging activity after 20 mins
- Format: physicochemical
measured_endpoint: IC50 (µM)
Could you give me the number in µM? Just the number is fine.

Reported IC50 for `C[C@H](c1cc2ccccc2s1)N(O)C(N)=O` : what is it? 43

---

- assay: Antioxidant activity assessed as DPPH radical scavenging activity after 30 mins by spectrophotometry analysis
- Type: physicochemical
For each of the compounds below, state its EC50.

Reported EC50 for O=C(OCCOC12CC3CC(CC(C3)C1)C2)c1cc(N(O)C2CCCO2)on1 (stereo not drawn) : what is it? > 100 µM

Reported EC50 for O=C(OCc1ccc(C23CC4CC(CC(C4)C2)C3)cc1)c1cc(N(O)C2CCCO2)on1 (stereo not drawn) : what is it? > 100 µM

Reported EC50 for CC(C)OC(=O)C12CC3CC(CC(OC(=O)c4cc(N(O)C5CCCO5)on4)(C3)C1)C2 (stereo not drawn) : what is it? > 100 µM

Recorded values, source ChEMBL document CHEMBL3745668.
